Biological target: Peroxisome proliferator-activated receptor alpha (Homo sapiens)
Sequence (Q07869 whole entry): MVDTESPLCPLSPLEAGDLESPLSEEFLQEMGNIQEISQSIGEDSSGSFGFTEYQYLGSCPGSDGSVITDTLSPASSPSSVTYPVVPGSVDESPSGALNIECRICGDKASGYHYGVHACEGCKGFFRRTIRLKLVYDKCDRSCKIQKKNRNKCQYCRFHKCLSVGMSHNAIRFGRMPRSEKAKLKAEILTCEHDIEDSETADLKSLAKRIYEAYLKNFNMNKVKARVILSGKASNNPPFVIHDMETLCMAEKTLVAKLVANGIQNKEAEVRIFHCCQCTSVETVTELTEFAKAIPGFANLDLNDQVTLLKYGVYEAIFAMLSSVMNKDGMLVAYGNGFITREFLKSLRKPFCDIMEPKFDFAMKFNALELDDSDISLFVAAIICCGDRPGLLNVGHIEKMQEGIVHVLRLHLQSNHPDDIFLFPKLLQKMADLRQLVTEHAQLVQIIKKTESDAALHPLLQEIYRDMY
Type: functional
QUANTITY MEASURED: EC50 (µM)
Numbers only; they are read as µM.

Give Peroxisome proliferator-activated receptor alpha (Homo sapiens) EC50 for CC(C)(Oc1ccc(C(=O)c2ccc(Cl)cc2)cc1)C(=O)O
13

---

# log10(IC50) per entry for Peroxisome proliferator-activated receptor alpha (Homo sapiens)
The figures below represent log10 of IC50, where IC50 is stated in nM.

CCCn1c(CCCc2ccc(OC(C)(C)C(=O)O)cc2)nn(Cc2cccc(OC)c2)c1=O: 1.28
Cc1ccc(Cn2nc(CCCc3ccc(OC(C)(C)C(=O)O)cc3)n(CCO)c2=O)cc1: 1.43
Cc1ccc(Cn2nc(CCCc3ccc(OC(C)(C)C(=O)O)cc3)n(CC(=O)O)c2=O)cc1: 2.98
CC(C)(Oc1ccc(C(=O)c2ccc(Cl)cc2)cc1)C(=O)O [FENOFIBRIC ACID]: 4.38

For CCCn1c(CCCc2ccc(OC(C)(C)C(=O)O)cc2)nn(C(C)c2ccccc2)c1=O (stereo not given) , what is its reported log10(IC50)?
2.34

---

Biological target: Peroxisome proliferator-activated receptor gamma (Homo sapiens)
Sequence (P37231 whole entry): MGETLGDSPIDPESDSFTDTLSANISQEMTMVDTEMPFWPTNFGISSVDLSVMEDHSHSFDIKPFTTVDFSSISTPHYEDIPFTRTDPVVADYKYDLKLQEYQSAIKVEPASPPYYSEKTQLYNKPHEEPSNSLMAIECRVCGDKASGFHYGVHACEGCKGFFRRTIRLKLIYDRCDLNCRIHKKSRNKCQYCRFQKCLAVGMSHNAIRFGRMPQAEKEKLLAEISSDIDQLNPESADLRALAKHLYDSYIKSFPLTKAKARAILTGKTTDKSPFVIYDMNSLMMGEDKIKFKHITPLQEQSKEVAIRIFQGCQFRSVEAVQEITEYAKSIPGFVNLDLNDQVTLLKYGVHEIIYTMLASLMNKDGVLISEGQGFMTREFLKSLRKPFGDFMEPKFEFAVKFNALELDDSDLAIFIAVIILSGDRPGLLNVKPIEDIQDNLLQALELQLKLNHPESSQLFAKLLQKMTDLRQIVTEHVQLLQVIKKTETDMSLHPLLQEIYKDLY
Some molecules, each annotated with its measured EC50.
# unit: µM | format: bare number

CCCCCCn1c(CCc2ccc(OC(C)(C)C(=O)O)cc2)nn(Cc2cccc(OC)c2)c1=O: 2.6

Query: EC50; subject: CCCn1c(CCc2ccc(OC(C)(C)C(=O)O)cc2)nn(Cc2ccc(C)cc2)c1=O
2.9

Origin of values: ChEMBL document CHEMBL1145902
